Target: T1, Recombinant Human 5′-Nucleotidase/CD73 Protein, CF (R&D Systems Cat: 5795-EN) (human, UniProt P21589 27-547)
T1 construct: Bought protein; also called Human CD73-His; recombinant human CD73; not shown: His tag
T1 sequence (looked up): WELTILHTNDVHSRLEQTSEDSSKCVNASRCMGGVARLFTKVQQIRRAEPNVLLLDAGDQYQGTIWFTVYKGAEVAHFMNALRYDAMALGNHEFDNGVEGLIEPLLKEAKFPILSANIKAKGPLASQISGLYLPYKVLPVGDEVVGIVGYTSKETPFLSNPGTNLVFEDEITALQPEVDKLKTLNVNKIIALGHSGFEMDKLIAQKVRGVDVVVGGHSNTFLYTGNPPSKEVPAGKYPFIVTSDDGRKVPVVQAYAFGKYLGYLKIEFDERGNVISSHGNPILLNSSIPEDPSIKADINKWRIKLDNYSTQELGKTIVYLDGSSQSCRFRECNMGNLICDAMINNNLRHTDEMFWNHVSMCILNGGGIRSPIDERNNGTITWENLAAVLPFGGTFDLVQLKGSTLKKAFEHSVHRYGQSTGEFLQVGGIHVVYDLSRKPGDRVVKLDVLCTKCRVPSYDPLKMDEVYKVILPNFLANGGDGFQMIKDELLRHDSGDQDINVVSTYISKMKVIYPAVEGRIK
Test: ForteBio Octet RED384 (BLI), whole IgG on AHQ sensors, 100 nM antigen, 1:1 model
property_measured: Kd (pM)
Kindly provide the numeric value in pM only, without the unit symbol.

# annotated cases, reported Kd shown
[
  {
    "binder": "358.C (antibody, V domains shown) VH: QVQLQESGPGLVKPSETLSLTCTVSGGSISGRYWSWIRQPPGKGLEWIGYIYGTGSTNYNPSLKSRVTISVDTSKNQFSLKLSSVTAADTAVYYCARESQESPYNNWFDPWGQGTLVTVSS VL: DIQMTQSPSSVSASVGDRVTITCRASQGISSWLAWYQQKPGKAPKLLIYAASSLQSGVPSRFSGSGSGTDFTLTISSLQPEDFATYYCQQGNSFPRTFGGGTKVEIK",
    "property_measured": "Kd",
    "result_number": 317
  },
  {
    "binder": "377.C (antibody, V domains shown, also called 377 IgG1 format) VH: EVQLLESGGGLVQPGGSLRLSCAASGFTFKSYAMSWVRQAPGKGLEWVSAISGSGSYTYYADSVKGRFTISRDNSKNTLYLQMNSLRAEDTAVYYCARGGLYGSGSYLSDFDLWGRGTLVTVSS VL: EIVLTQSPATLSVSPGERATLSCRASQSVGSNLAWYQQKPGQAPRLLIYGASTRATGIPARFSGSGSGTEFTLTISSLQSEDFAVYYCQQHNAFPYTFGGGTKVEIK",
    "property_measured": "Kd",
    "result_number": 572
  }
]

Now for a further binder.
Exercise: // lookup Kd for 379.C (antibody, V domains shown, also called 379 IgG1 format) VH: EVQLLESGGGLVQPGGSLRLSCAASGFTFSRYAMSWVRQAPGKGLEWVSSISGTGGSTYYADSVKGRFTISRDNSKNTLYLQMNSLRAEDTAVYYCARGGLYGSGSYLSDFDLWGRGTLVTVSS VL: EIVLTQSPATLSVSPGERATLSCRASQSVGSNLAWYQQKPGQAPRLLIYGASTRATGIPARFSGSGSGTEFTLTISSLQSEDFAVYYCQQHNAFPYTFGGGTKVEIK
Key: 550

All values here come from patent US20240141060A1.
